# method: yeast display, Sf9 membrane polyspecificity reagent, FACS + sequencing; frameworks hold sequencing errors
value kind: polyreactivity (PSR sort gate)

• QVQLVESGVGLVQAGGSLRLSCAASGISFVGNAMGWYRQAPGKERELVASINSGGSTYYADSVKGRFTISRDNAKYTVYLQMNSLKPADTAVYYCAVEEDRYYYDDYDYWGQGTQVTVSS = low polyreactivity
• QVQLVESGGGLVQAGGSLRLSCAASGPISAIYDMGWDRQAPGKERELVASISGGTSTYYADSVKGRFTISRDNAKNTVYLQMNSLKPEDTAVYYCNAEASSYHGVEDEYDYWGQGTQVTVSS = low polyreactivity
• QVQLVESGGGLVQAGGSLRLSCAASVRIFEVYAMGWYRQAPGKERELVAAISSGGGSTYYADSVKGRFTISRDNAKNTVFLQMISLKPEDTAVYYCAADEVTKKNSFPRIMDYWGQGTQVTVSS = high polyreactivity
• QVQLVESGGGLDQAGGSLRLSCAASGIIFGVNVMGWYRQAPGKERELVATITWRGDSTYYADSVKGRFTISRDNAKNTVYLQMNSLKPEDTAVYYCARGARTGVREDDYWGQGTQVTLSS = low polyreactivity
• QVQLVESGGGLVQAGGSLRLSCAASGRTFSANAMGWYRQAPGKERELVAGITSRGGGTYYADSVKGRFTISRDNAKNTVYLQMNSLKPEDTAVYYCAAPYNGGGVHSYWEYDYWGQGTQVTVSS = high polyreactivity

For every item below, please supply its polyreactivity (PSR sort gate).
1. QVQLVESGGGLVQAGGSLRLSCAASGRTFKDYAMGWYRQAPGKERELVAGINGSGGSTYYADSVKGRFTISRDYAKNTVYLQMNSLKPEDTAVYYCNADFGYWWDGRRYDYWGQGTQVTVSS
2. QVQLVESGGGLVQAGGSLRLSCAASGSIFESNAMGWYRPAPGKEREFVAAIDQNDGSTNYADSVKGRFTISRDHAKNTVYLQMNSLKPEDTAVYYCAKYWGYLGYYEFDYWGQGTQVTVSS
3. QGQLVESGGGLVQAGGRLRLTCAASGSIFAGNAMGWYRQAPGKERELVAAIRWSTGSTYYADSVKGRFTISRDNAKNTVYLQLNSLKPEDTAVYYCAATDTTFYGIVRYEYWGQGTQVTVSS
4. QVQLVESGGGLVQAGGSLRLSCAASGSIRYYAMGWYRQAPGKEREFVAAISRRGSSTNYADSVKGRFTISRDNAKNTVYLQMNRLKPEDTAVYYCARGLDVISYGYDYWGQGTQVTVSS
5. QVQLVESGGGLVQAGGSLRLSCAASGRIFVNNAKGWYRPAPGKERELVAAISRGASTYYADSVKGRFTISRDNAKNTVYLQLNSLKAEDTAVYYGNARTDAYGASEMGYWGQGTQVTVSS
6. QVQLVESGGGLVQAGGSLRLSCAASGRIFNFYAMGWYRQAPGKERELVASITSGGRTSYADSVKGRFTISRDNAKNTVYLQMNSLKPEDTAVYYCAAKSPLKTYYFTSFRYYYWGQGTQVTVSS

Result ::
1. low polyreactivity
2. low polyreactivity
3. low polyreactivity
4. high polyreactivity
5. high polyreactivity
6. high polyreactivity

====

# method: yeast display, Sf9 membrane polyspecificity reagent, FACS + sequencing; frameworks hold sequencing errors
value kind: polyreactivity (PSR sort gate)

* QVQLVESGGGLVQAGGSLRLSCAASGRTFDPNVMGWYRQAPGKERELVAAISRGGSTYYADSVKGRFTISRDNAKNTVYLQMNSLKPEDTAVYYCAATHYGHSISYWFDYWGQGTQVTVSS | high polyreactivity
* QVQLQESGGGLVQAGGSLRLSCAASGNIFPTVSMGWYRQAPGKEREFVVTIDPGSNTYYADSAKGRFTISRDNAKNTVYLQMNSPKPEDTAVYYCAVVFADWATYGYWGQGTQVTVSS | high polyreactivity
* QVQLEESGGGLVQAGGSLRLSCPASGLTFDCYAMGWYRQAPGKERELVAAITSVGSTYYADSVKGRFTISRDNAKNTVYLQMTSLKPEDTAVYYCAVEGVIWCFWPYEYWGQGTQVTVSS | high polyreactivity
* QVQLVESGGGLVQAGGSLRLSCAASGRIFQRNAMGWYRQAPGKERELVAAITSTGVRTYYADSVKGRFTISRDNAKNTVYLQMNSLKPEDTAVYYCAVRGERRYIYAYWGQGTQVTVSS | high polyreactivity

====

# method: yeast display, Sf9 membrane polyspecificity reagent, FACS + sequencing; frameworks hold sequencing errors
value kind: polyreactivity (PSR sort gate)

Guide cases for polyreactivity (PSR sort gate), answers given:
- QVQLVESGGGLVQAGGSLRLSCAASGRTFPYYAMGWSRQAPGKERELVAGITSNAGSTYYADSVKGRFTISRDNAKNTVYLQMNSLKPEDTAVYYCAKTKAGRWTTFKFGYWGQGTQVTVSS: high polyreactivity
- QVQLVESGGGLVQPGGSLRLSCAASGRTFYEYAMGWYRPAPGKERELVAGITSGGSTNYADSVKGRFTISRDNAKNTVYLQMNSLKPEDTAVYYCAASYWGYEYDYWGQGTQVTVSS: low polyreactivity
- QVQLVESGGGLVQAGGSLRLSCAASGSIFAANAMGWYRQAPGKEREFVASISRSGGSTYYADSVKGRFTISRDNAKNTVYLQMTSLKPEDTAVYYCATRTRIYSARDHYGYWGQGTQVTVSS: low polyreactivity
- QVQLVESGGGLVQAGGRLRLSCAASGSTFGTYAMGWYRHAPGKERELVAAITRSGGSTYYADSVKGRFTISRDNAKNTVYLQMNSLKPDDTAVFYCAAVSKGYYYWGQGTQVTVSS: high polyreactivity
- QVQLGESGGGLVQAGGSLRLSCAASGSIFGGNTKGWYRQAPGKERELVAAINGGVTTNYADSVKGRFTISRDNAKNTVYLQMNSLKPEDTAVYYCNAVDFGPVVLRLYYWGQGTQVTVSS: low polyreactivity
- QVQLVESGGGLVQAGGSLRLSCAASGRIFYRNAMGWYRQAPGKERELVAAITIGTNTYYADSVKGRFTISRDNAKITVYLQMNSLKPEDTAVYYCAVAVFLYTGGVDYWGQGTQVTVSS: low polyreactivity
- QVQLVESGGGLVQAGGSLRLSCAASGSIFVSYAMGWYRQAPGKERELVAAITGRTGSTYYADSVKGRFTISRDNAKNTVYLQMNSLKPEDTAVYYCAARHKQHNRYDYWGHGTQVTVSS: low polyreactivity
- QVQLVESGGGLVQAGGSLRLSCAASGSIFRYYAMGWYRQAPGKERELVATISWRGGRTNYADSVKGRFTISRDNAKNTVYLQMNSLKPEDTAVYYCAADPVRRPWGVVGGDYWGQGTQVTVSS: high polyreactivity

For every item below, please supply its polyreactivity (PSR sort gate).
1. QVNLEESGGGLVQAGVILRLSSAASGSIFYRNAMGWYRQAPGKEREWVAAISSGGSTYYADSVKGRFTISRDNAKNTVYLQMNSLKPEETAVYYCAKDAHIWGYRDYEYWGLGTQVTVSS
2. QVQLVESGGGLVQAGGSLRLSCAASGITFWVYAMGWYRQSPGKESELVATISRSGGRTYYADSVKGRFTISRDNAKTTVYLQMNSLKPEDTAVYYCAARYRNVLGYDYDFWGQGTQVTVSS
3. QVKLVESGGGLVQAGGSLRLSCAASGRTFGYNAMGWYRQAPGKERELVASINWSGGRTYYADSVKGRFTISRDNAKNTVYLQMYSLKPEDTAVYYCAKGFTRVQQQYQYLFGYWGQGTQVTVSS

Result ::
1: high polyreactivity; 2: high polyreactivity; 3: low polyreactivity

====

# method: yeast display, Sf9 membrane polyspecificity reagent, FACS + sequencing; frameworks hold sequencing errors
value kind: polyreactivity (PSR sort gate)

Guide cases for polyreactivity (PSR sort gate), answers given:
• QLQLVESGGGLVQAGGSLRLSCAASGRTFPGNAMGWYRQEPGKERELVATITWSSGRTHYADSVKGRFTISRDNAKNTVYLQMNSLKPEDTAVYYCAAKWIVAVGGFYYWGQGTQVTVSS = low polyreactivity
• QVQLVESGGGLVQAGGSLRLSCAASGNTFWRYTMGWYRQAPGKERELVAAISSSGGSTYYADSVKGRFTISRDNAKNTVYLQMNSLKPEDTAVYYCAADSGSSRSRRGYEYWGQGTQVTVSS = high polyreactivity
• QVQLVDSGGGLVQAGGSLRLSCAPSGYIFPYNAMGWYRQAPGKEREFVAAITSSGGSTYYADSVKGRFTISRENAKNTVYLQMNSLKPEDTAVYYCARVPLHRYGYWGQGTQVNVSS = high polyreactivity
• QVQLVESGGGLVQAGGSLRLSCAASGLIFSGYAMGWYRQAPGKERELVAAINSGTSTTYADSVKGRFTISRDNAKNTVYLQMNSLKPEDTAVYYCNTPHNQDKPYPGYDYWGQGTQVTVSS = low polyreactivity
• QVQLVESGGGLVQAGGSLRLSCAASGNIFTYYVRGWYRQEPGKERELVAAISRRGGSTYYADSVKGRFTISRDFAKNTVYLQMNSLKPEDTAVYYCAKKYPRDMDYWGQGTQVTVSS = high polyreactivity
• QVQLVESGGGLVQAGGSLRLSCAASGSTFTINVMGSYRQAPGKERELVAAINGGGRTNYADSVKGRFTISRDNAKNTVYLQMNSLKPEDTAVYYCAADGLSNVRQMDYWGQGTQVTVSS = low polyreactivity
• QVQLVESGGGLVQAGGSLRLSCAAYGFIFKKYAMGWYRQAPGKERELVAAISGSSTRTYYADSVKGRFTISRDNAKKTVYLQMHSLKPEDTAVYYCVGRFYERDYWGQGTQVTVSS = high polyreactivity
• QVQLVESAGGLVQAGGSLRLSCAASVSIFFIYARGWYRQAPGKERELVATISRSDVSTFYGDSVKGRFTISRDNAKNTVYLQMNSLKPEDTAVYYCAAEWSPPEPIQLYGYWGQGTQVTVSS = high polyreactivity
• QDQLVESGGGLVQAGGSLRLSCAASGRILKYNAMGWYRQAPGKERELVAAISYRGGSTYYADSVKGRFTISRDNAMNTVYLQMNSLKPEDTAVYYCNAGGGILNGPLFDYWGQGTQVTVSS = low polyreactivity
• QVLLVESGGGLVQAGGILRLSCAASGRILPFNAMGWYRQAPGKAREFVAANSRVSGRTYYADSVKGRFTISRDNAKNTVYLQMNSLKPEDTAVYYCATDTYSYGYEYWGQGTHVTVSS = high polyreactivity

Query :: What measured polyreactivity (PSR sort gate) goes with QDQLVESCGGLVQAGGSLRLSCAASGGIINGYTMGWYRQAPGKETDLVAAITGSGGSTYYADSVKGRYTISRDNAKNTVYLQMNSLKPEETAVYYCARDYHARPNCPRSDDYDYWGQGTQVTVSS ?
Result :: low polyreactivity

Entry source: the nanobody polyreactivity screen of Harvey et al. (2022)
